- EXPERIMENTAL_TARGET: T1, soluble human insulin receptor-immunoglobulin heavy chain chimera (human, UniProt P06213 28-956, limits assumed)
- T1 construct: extracellular domain; also called sIR-Fc; slR-Fc; not shown: immunoglobulin heavy chain constant domains
- PROTOCOL_NOTES: ratio of IC50 on rhIGF-1R (TR-FRET vs b-20E2) to IC50 on sIR-Fc (FP vs FITC-RP9)
Kindly supply the reported Binding Ratio IGF-1R/IR values for the records listed here.
Give bare numbers.

> print(dat)
                                     binder  assay.value
1  GSLDESFYDWFERQLG (Formula 1, Site 1 peptide; also called H2C-PD1-IGFR) [RP9]          1.4
2  DYKDFYDAIDQLVRGSARAGGTRD (Formula 2, Site 1 peptide) [20E2 (D118)]          1.9
3  SQAGSAFYAWFDQVLRTV (Formula 1, Site 1 peptide) [RP15]           25
4  GIISQSCPESFYDWFAGQVSDPWWCW (Formula 1, Site 1 peptide; also called H2CA-4-G9-IGFR; S326) [G33]          1.3
5                 VMDARDDPFYHKLSELVT [RP16]         0.15
6  PPWGARFYDAIEQLVFDNL (Formula 2, Site 1 peptide) [RP4]          476

Problem: Read the entry FHENFYDWFVQRVSKK (Formula 1, Site 1 peptide) [H2C (D117)] and write its reported Binding Ratio IGF-1R/IR.
Solution: 9

The reported numbers originate from patent US6875741.
